Data provenance is patent US20210347900A1.

- measured-on: T1, Human SR-A1 (MSR) (human, UniProt P21757 77-451)
- T1 construct: Bought protein; also called Macrophage scavenger receptor types I and II
- T1 sequence (looked up): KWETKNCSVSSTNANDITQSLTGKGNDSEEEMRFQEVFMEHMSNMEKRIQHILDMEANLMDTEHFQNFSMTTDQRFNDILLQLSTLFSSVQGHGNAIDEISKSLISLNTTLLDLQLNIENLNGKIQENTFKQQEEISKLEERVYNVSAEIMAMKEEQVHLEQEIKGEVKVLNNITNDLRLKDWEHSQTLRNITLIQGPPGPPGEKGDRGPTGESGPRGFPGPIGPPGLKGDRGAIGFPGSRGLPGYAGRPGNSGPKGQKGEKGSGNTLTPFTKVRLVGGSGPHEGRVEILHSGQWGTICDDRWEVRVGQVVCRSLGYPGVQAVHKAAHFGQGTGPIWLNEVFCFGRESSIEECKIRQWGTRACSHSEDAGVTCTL
- assay-explanation: IgG binding ELISA on coated antigen, absorbance at 450 nm;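 note: specificity panel of related human receptors, coated alongside human LOX1 as the binding positive control, with an isotype human IgG1-TM antibody setting the nonspecific background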
readout-kind: binding result

LX5140093_N>D IgG1-TM (antibody, V domains shown, Whole human IgG1-TM; Heavy chain N96D (Kabat) variant of LX5140093; also called LX5140093_D) VH: QVQLVQSGAEVKKPGASVKVSCKVSGYTLTELSMHWVRQAPGKGLEWMGGFDPEDWAYHQAQKFQGRVTMTEDTSTDTAYMELSSLRSEDTAVYYCATPDGQQGKGVRGWDYYYGMDVWGQGTTVTVSS VL: QSVVTQPPSVSGAPGQRVTISCTGSSSNIGAGYDVHWYQQLPGTAPKLLIYGNSNRPSGVPDRFSGSKSGTSASLAITGLQAEDEADYYCQSYDSSHRAWAFGGGTKLTVL: no binding
LX5140092_N>D IgG1-TM (antibody, V domains shown, Whole human IgG1-TM; Heavy chain N96D (Kabat) variant of LX5140092; also called LX5140092_D) VH: QVQLVQSGAEVKKPGASVKVSCKVSGYTLTELSMHWVRQAPGKGLEWMGGFDPEDWKYHLSQKFQGRVTMTEDTSTDTAYMELSSLRSEDTAVYYCATPDGTHQGGVRGWDYYYGMDVWGQGTTVTVSS VL: QSVVTQPPSVSGAPGQRVTISCTGSSSNIGAGYDVHWYQQLPGTAPKLLIYGNSNRPSGVPDRFSGSKSGTSASLAITGLQAEDEADYYCQSYDSSLSGWVFGGGTKLTVL: no binding
LX5140110 IgG1-TM (antibody, V domains shown, Whole human IgG1-TM (L234F/L235E/P331S); also called LOX514110; LOX514_110) VH: QVQLVQSGAEVKKPGASVKVSCKVSGYTLTELSMHWVRQAPGKGLEWMGGFDPEDFKYHTHQKFQGRVTMTEDTSTDTAYMELSSLRSEDTAVYYCALVWGTQGKGVRGWDYYYGMDVWGQGTTVTVSS VL: QSVVTQPPSVSGAPGQRVTISCTGSSSNIGAGYDVHWYQQLPGTAPKLLIYGNSNRPSGVPDRFSGSKSGTSASLAITGLQAEDEADYYCQSYDSSLSGWVFGGGTKLTVL: no binding
